Origin of values: patent US20240116985A1

Target: T1, full-length beta-Catenin (Uniprot ID P35222) (Homo sapiens (Human), UniProt P35222 1-781)
T1 construct: The assay text says 'full-length'; also called bCat; B-Catenin
T1 sequence: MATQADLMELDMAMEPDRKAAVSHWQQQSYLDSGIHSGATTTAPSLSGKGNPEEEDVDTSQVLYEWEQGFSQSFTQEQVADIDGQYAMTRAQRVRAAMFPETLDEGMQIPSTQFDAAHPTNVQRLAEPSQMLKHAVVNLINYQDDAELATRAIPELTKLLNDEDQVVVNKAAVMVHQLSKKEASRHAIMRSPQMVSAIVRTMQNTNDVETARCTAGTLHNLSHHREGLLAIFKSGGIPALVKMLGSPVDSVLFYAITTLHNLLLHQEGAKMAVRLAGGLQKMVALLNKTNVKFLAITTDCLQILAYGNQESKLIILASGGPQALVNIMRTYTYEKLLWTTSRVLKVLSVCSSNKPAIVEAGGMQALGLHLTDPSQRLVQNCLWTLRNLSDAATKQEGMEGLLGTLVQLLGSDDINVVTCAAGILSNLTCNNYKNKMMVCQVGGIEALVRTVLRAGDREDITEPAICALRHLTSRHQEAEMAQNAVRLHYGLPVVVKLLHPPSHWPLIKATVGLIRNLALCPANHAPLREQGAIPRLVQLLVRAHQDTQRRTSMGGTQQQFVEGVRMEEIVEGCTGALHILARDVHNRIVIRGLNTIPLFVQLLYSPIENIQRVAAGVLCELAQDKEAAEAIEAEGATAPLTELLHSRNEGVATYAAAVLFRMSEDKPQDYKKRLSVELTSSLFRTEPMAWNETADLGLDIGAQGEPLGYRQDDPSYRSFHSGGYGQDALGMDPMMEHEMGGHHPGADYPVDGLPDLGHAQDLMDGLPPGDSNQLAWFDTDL
Assay: fluorescence polarization competition; peptide titrated against 10 nM full-length beta-catenin + 10 nM 5FAM-TCF4(10-53) probe
Starred links: 1 amine or outer side, 2 acyl side, 3 side chain; linkers in the order of their positions; H or OH if unused. Positions of bridges follow the written chain, without caps; N, C: chain ends. Non-standard residues stand in square brackets, D forms with d. Primed or numbered codes have the meaning given here. B5(26) = 2-amino-2-(pent-4-en-1-yl)hept-6-enoic acid (bis-pentenylglycine), stitching residue carrying two staples, C=CCCCC(CCCC=C)(N[*:1])C(=O)[*:2]; B5(23) = 2-amino-2-(pent-4-en-1-yl)hept-6-enoic acid (2,2-bis(4-pentenyl)glycine), stitching residue, C=CCCCC(CCCC=C)(N[*:1])C(=O)[*:2]; B5(24) = 2-amino-2-(pent-4-en-1-yl)hept-6-enoic acid, 2,2-bis(4-pentenyl)glycine (stitching residue), C=CCCCC(CCCC=C)(N[*:1])C(=O)[*:2]; B5(21) = 2-amino-2-(pent-4-en-1-yl)hept-6-enoic acid, bis(4-pentenyl)glycine (stitching residue), C=CCCCC(CCCC=C)(N[*:1])C(=O)[*:2]; S(OMe) = O-methyl-L-serine, COC[C@H](N[*:1])C(=O)[*:2]; Phe(2-Br) = N[C@@H](Cc1ccccc1Br)C(=O)O; Phe(2-Cl) = N[C@@H](Cc1ccccc1Cl)C(=O)O; Phe(2-OMe) = COc1ccccc1C[C@H](N)C(=O)O; His(τ-Me) = Cn1cnc(C[C@H](N)C(=O)O)c1; Phe(2-F) = N[C@@H](Cc1ccccc1F)C(=O)O; Bta = N[C@@H](Cc1csc2ccccc12)C(=O)O; His(π-Me) = Cn1cncc1C[C@H](N)C(=O)O; αAllylPro = C=CC[C@@]1(C(=O)O)CCCN1; S8 = C=CCCCCCC[C@](C)(N)C(=O)O
Each entry below carries its reported pIC50.
Keep in mind that pIC50 stands for -log10 of concentration in molar terms.

Answered cases to consult:
{"Binder": "Ac-[αAllylPro]DA[B5(23)]DEAAFT[S8]F[Bta]Q-NH2 (staple 1-4, 4-11, Stapled peptide composition) [I-423]", "pIC50": 6.98}
{"Binder": "XDAXDEAAFNXHXQ (not fully specified; N-terminal Ac, C-terminal NH2; non-natural PL3(1), B5(4), S8(11), 1meH(12), BztA(13); staples PL3-B5 and B5-S8 (olefin metathesis), Stapled peptide composition) [I-440]", "pIC50": 5.30}
{"Binder": "Ac-[αAllylPro]DA[B5(24)]DEAAF[S(OMe)][S8]F[Bta]Q-NH2 (staple 1-4, 4-11, Stapled peptide composition) [I-433]", "pIC50": 6.87}
{"Binder": "Ac-[αAllylPro]DA[B5(24)]DEAAFN[S8][Phe(2-OMe)][Bta]Q-NH2 (staple 1-4, 4-11, Stapled peptide composition) [I-437]", "pIC50": 7.59}

Q: I'd like to know its pIC50. The binder in question is Ac-[αAllylPro]DA[B5(23)]DEAAFT[S8]F[Bta]H-NH2 (staple 1-4, 4-11, Stapled peptide composition) [I-420]
Ans: 6.89

Q: Here is the next binder: Ac-[αAllylPro]DA[B5(26)]DEAAFN[S8][His(π-Me)][Bta]Q-NH2 (staple 1-4, 4-11, Stapled peptide composition) [I-438]
Ans: 5.30

Q: Here is the next binder: Ac-[αAllylPro]DA[B5(24)]DEAAFN[S8][Phe(2-F)][Bta]Q-NH2 (staple 1-4, 4-11, Stapled peptide composition) [I-434]
Ans: 7.17

Q: Here is the next binder: Ac-[αAllylPro]DA[B5(24)]DEAAFN[S8][Phe(2-Cl)][Bta]Q-NH2 (staple 1-4, 4-11, Stapled peptide composition) [I-435]
Ans: 7.15

Q: Here is the next binder: Ac-[αAllylPro]DA[B5(24)]DEAAFN[S8][Phe(2-Br)][Bta]Q-NH2 (staple 1-4, 4-11, Stapled peptide composition) [I-436]
Ans: 7.25

Q: Here is the next binder: Ac-[αAllylPro]DA[B5(21)]DEAAFN[S8][His(τ-Me)][Bta]Q-NH2 (staple 1-4, 4-11, Stapled peptide composition) [I-439]
Ans: 5.30
